B1: glmS ribozyme (parent)
chain: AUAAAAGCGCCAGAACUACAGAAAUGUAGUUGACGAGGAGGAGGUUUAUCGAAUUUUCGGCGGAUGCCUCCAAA

Variants of: B1
assayInfo: kcat; higher = faster cleavage; RNA array
experimentalSetup: with glucosamine-6-phosphate
This sample holds only a part of the variants without activity.
# kcat annotations
Could you give me the number in s⁻¹? Just the number is fine.

Please review the entries below; each comes with its answer.
mutantLabel	unitOfMeasure	testResult
G66U C68U	s⁻¹	0.000348
U30A U46G	s⁻¹	0.000804
A39U G59A	s⁻¹	2.27e-05
G32U A64G	s⁻¹	0.000904
U30A A53G	s⁻¹	0.00645

Exam item: Value lookup for kcat; key = G44U C68U
Marked response: 2.53e-05

Exam item: # kcat lookup, item A12U G37A G40C
Marked response: 0.00099
